propertyMeasured: melting point

[[record]]
compound = "CC(O)(CC(=O)O)CC(=O)O"
testresult = "108 °C"

[[record]]
compound = "CC1(C)O[C@@H](CC(=O)O)C[C@@H](C=Cc2ccccc2)O1 (relative stereo)"
testresult = "153 to 155 °C"

[[record]]
compound = "COc1cc(C=Cc2cc(=O)n3cccc(C)c3n2)cc(OC)c1OC"
testresult = "208 to 210 °C"

[[record]]
compound = "O=C(O)c1cc2[nH]c3c(O)cccc3c(=O)n2n1"
testresult = "326 to 330 °C"

[[record]]
compound = "COc1ccc(-c2nc(Br)c(C(F)(F)F)[nH]2)cc1"
testresult = "177 to 178 °C"


Form field melting point, entry `CC(C)(C)OC(=O)NC1CCN(CC23CC(c4ccccc42)c2ccccc23)CC1` : 155 to 160 °C

Form field melting point, entry `O=C(CO)c1ccc(-c2ccccc2)cc1` : 130 to 132 °C

Form field melting point, entry `CC(C)(C)OC(=O)n1ccc2cc(-c3ccccc3)ccc21` : 105 to 106 °C

Form field melting point, entry Cc1cccc(C(=O)NC(Nc2c(Nc3cccnc3)c(=O)c2=O)C(C)(C)C)c1 (stereo not given) : 236 to 237 °C

Form field melting point, entry `CC(C)(C)C(=O)OCOC(=O)c1cn(CC(F)(F)F)c2cc3c(cc2c1=O)OCO3` : 190 to 191 °C
